test target: T1, TNFR1 (Homo sapiens, UniProt P19438)
T1 chain: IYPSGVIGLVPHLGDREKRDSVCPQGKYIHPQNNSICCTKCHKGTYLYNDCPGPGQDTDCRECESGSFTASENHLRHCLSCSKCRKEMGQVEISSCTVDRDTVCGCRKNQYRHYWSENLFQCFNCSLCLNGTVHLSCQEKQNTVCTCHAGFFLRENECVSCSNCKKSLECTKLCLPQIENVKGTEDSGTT
protocol text: yeast display SC50
Listing of entries alongside the reported apparent Kd (screen).
Supply the numeric figure in nM, leaving out any unit text.

A selection of reference data follows.
binder: K8T (designed binder) SMEEEVETAAKEYEKKKKEAIEKHLEKLKAKDKEAAERFLKELEEAAKEYAKDEAKTMSEEEAKRRAKKYKEKVLLSELSEEEQKEIKEAEEKLVRTILKYVEEAAK
meas value: 1.16
//
binder: E5D (designed binder) SMEEDVEKAAKEYEKKKKEAIEKHLEKLKAKDKEAAERFLKELEEAAKEYAKDEAKTMSEEEAKRRAKKYKEKVLLSELSEEEQKEIKEAEEKLVRTILKYVEEAAK
meas value: 0.653
//
binder: A9Q (designed binder) SMEEEVEKQAKEYEKKKKEAIEKHLEKLKAKDKEAAERFLKELEEAAKEYAKDEAKTMSEEEAKRRAKKYKEKVLLSELSEEEQKEIKEAEEKLVRTILKYVEEAAK
meas value: 0.446
//
binder: I98Q (designed binder) SMEEEVEKAAKEYEKKKKEAIEKHLEKLKAKDKEAAERFLKELEEAAKEYAKDEAKTMSEEEAKRRAKKYKEKVLLSELSEEEQKEIKEAEEKLVRTQLKYVEEAAK
meas value: 0.0498
//
binder: K73W (designed binder) SMEEEVEKAAKEYEKKKKEAIEKHLEKLKAKDKEAAERFLKELEEAAKEYAKDEAKTMSEEEAKRRAKKYKEWVLLSELSEEEQKEIKEAEEKLVRTILKYVEEAAK
meas value: 15.2
//
binder: A9H (designed binder) SMEEEVEKHAKEYEKKKKEAIEKHLEKLKAKDKEAAERFLKELEEAAKEYAKDEAKTMSEEEAKRRAKKYKEKVLLSELSEEEQKEIKEAEEKLVRTILKYVEEAAK
meas value: 0.539
//
binder: E42S (designed binder) SMEEEVEKAAKEYEKKKKEAIEKHLEKLKAKDKEAAERFLKSLEEAAKEYAKDEAKTMSEEEAKRRAKKYKEKVLLSELSEEEQKEIKEAEEKLVRTILKYVEEAAK
meas value: 7.78
//
binder: S1H (designed binder) HMEEEVEKAAKEYEKKKKEAIEKHLEKLKAKDKEAAERFLKELEEAAKEYAKDEAKTMSEEEAKRRAKKYKEKVLLSELSEEEQKEIKEAEEKLVRTILKYVEEAAK
meas value: 1.4

Query string: Field request: apparent Kd (screen) | item: K71I (designed binder) SMEEEVEKAAKEYEKKKKEAIEKHLEKLKAKDKEAAERFLKELEEAAKEYAKDEAKTMSEEEAKRRAKKYIEKVLLSELSEEEQKEIKEAEEKLVRTILKYVEEAAK
Result string: 0.539

Query string: Field entry: A9D (designed binder) SMEEEVEKDAKEYEKKKKEAIEKHLEKLKAKDKEAAERFLKELEEAAKEYAKDEAKTMSEEEAKRRAKKYKEKVLLSELSEEEQKEIKEAEEKLVRTILKYVEEAAK
Result string: 1.16

Query string: Field entry: R96F (designed binder) SMEEEVEKAAKEYEKKKKEAIEKHLEKLKAKDKEAAERFLKELEEAAKEYAKDEAKTMSEEEAKRRAKKYKEKVLLSELSEEEQKEIKEAEEKLVFTILKYVEEAAK
Result string: 2.48
